Target: Voltage-dependent T-type calcium channel subunit alpha-1H (Homo sapiens) (UniProt O95180)
Sequence (O95180 whole entry, looked up): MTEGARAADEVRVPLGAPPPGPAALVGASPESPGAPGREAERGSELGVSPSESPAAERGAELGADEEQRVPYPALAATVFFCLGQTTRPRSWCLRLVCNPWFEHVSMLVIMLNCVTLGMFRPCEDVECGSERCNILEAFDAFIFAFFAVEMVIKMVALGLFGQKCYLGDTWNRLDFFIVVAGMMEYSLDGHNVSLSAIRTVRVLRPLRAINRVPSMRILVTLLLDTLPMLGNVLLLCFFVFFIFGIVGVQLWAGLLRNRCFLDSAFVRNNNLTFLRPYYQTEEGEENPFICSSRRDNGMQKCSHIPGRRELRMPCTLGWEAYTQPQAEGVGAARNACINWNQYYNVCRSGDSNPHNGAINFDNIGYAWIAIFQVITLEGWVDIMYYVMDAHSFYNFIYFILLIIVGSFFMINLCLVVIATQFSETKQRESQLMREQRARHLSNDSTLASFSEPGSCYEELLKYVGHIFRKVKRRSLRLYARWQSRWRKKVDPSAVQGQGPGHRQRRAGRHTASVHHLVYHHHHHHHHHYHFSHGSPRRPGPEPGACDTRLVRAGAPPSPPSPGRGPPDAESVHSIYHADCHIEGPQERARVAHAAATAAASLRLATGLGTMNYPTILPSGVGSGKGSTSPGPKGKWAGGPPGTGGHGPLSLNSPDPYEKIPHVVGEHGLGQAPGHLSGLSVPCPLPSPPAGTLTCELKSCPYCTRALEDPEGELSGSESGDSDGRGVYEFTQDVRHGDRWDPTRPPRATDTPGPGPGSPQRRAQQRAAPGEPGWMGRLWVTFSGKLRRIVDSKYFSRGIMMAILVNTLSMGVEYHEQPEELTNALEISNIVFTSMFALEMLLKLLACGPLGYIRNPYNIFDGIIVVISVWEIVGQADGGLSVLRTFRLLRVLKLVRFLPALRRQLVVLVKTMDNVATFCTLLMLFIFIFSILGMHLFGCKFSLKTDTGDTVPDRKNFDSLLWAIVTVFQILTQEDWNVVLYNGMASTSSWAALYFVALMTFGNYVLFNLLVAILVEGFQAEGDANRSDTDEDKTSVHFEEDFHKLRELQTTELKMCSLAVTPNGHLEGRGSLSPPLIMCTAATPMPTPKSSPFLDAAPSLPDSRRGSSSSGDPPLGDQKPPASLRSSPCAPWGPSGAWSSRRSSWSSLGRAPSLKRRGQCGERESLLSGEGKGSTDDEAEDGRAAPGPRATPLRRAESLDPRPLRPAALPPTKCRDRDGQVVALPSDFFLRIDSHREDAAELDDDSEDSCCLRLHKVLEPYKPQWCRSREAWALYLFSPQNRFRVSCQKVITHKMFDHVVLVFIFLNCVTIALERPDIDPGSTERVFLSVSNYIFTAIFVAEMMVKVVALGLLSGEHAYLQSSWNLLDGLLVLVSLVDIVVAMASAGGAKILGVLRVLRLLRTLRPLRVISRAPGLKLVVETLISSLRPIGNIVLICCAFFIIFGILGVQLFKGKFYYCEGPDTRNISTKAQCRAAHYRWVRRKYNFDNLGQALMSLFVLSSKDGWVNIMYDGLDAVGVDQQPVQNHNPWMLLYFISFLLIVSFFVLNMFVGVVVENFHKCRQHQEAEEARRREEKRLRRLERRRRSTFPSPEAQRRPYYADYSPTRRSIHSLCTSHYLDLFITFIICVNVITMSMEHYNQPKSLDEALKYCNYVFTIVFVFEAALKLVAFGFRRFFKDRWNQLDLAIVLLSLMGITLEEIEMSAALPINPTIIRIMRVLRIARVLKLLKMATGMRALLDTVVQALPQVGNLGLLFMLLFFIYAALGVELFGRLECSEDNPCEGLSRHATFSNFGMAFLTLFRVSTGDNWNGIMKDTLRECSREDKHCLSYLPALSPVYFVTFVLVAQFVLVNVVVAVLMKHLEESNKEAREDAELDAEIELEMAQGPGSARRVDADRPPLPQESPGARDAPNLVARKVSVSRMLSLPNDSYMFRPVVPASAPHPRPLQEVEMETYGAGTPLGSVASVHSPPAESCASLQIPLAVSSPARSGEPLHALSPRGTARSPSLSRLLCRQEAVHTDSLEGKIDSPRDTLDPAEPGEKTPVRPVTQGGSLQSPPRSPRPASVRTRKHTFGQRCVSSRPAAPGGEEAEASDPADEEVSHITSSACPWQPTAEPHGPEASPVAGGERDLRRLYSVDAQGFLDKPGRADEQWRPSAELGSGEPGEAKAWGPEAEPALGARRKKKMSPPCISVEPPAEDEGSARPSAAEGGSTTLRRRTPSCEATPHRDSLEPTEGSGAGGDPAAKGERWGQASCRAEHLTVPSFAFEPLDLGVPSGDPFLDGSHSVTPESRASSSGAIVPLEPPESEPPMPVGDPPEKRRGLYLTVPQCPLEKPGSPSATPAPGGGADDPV
Assay: Cav3.2 calcium influx blockers – cell-based, Fluo-4 calcium fluorescence, FDSS, MLSMR library, primary screen (AID 449739)
Details: Cav3.2-expressing cells, at 10 µM
Screen size: about 100,000 compounds; about 4,200 (4.2%) were called active.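 Rule for the calls: active = single-dose well whose peak fluorescence ratio is a statistical outlier from its plate by either plate-standardised score or position-corrected B-score; inactive = the rest.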 The full list was thinned out, with actives kept by preference.
Write down the outcome that applies. Available outcomes: 1 (yes) = active, 0 (no) = inactive

Enquiry: Which outcome was assigned to `COC(=O)C1=C(c2cc3ccccc3s2)C[C@@H]2CC[C@H]1N2C(=O)NCc1cccc2ccccc12` in this test?
Return: 1 (yes)

Enquiry: Next record, please: CCCC[N+]1(C)C2CC(OC(=O)C(CO)c3ccccc3)CC1C1OC12 (centres undefined)
Return: 0 (no)

Enquiry: Would you kindly repeat that for `CCCCCn1c(=O)c(C(=O)Nc2c(C)n(C)n(-c3ccccc3)c2=O)c(O)c2ccccc21` ?
Return: 1 (yes)

Enquiry: Do the same for CC[C@H]1CC2CN3CCc4c([nH]c5ccccc45)C(C(=O)OC)(C2)C13 (some centres undefined) please
Return: 0 (no)

Enquiry: What about this compound? `O=C(COc1ccc2ccccc2c1)N1CCN(Cc2ccncc2)CC1`
Return: 0 (no)

Enquiry: What do you get for `Cc1ccc(N(C)C(=O)Oc2cccc3ccc(C)nc23)cc1` ?
Return: 1 (yes)

Enquiry: Thanks! And CC1C2Cn3c(nc4ccccc43)C1N(C)O2 (centres undefined) ?
Return: 0 (no)

Enquiry: One more compound: `COC(=O)C1=C(c2cc3ccccc3o2)C[C@@H]2CC[C@H]1N2C(=O)NC1CCCCC1`
Return: 0 (no)

Enquiry: Next record, please: `CCCCCn1c(=O)c(C(=O)NCc2ccccn2)c(O)c2ccccc21`
Return: 0 (no)

Enquiry: Next compound: `COC(=O)C1=C(c2cc3ccccc3s2)C[C@@H]2CC[C@H]1N2C(=O)NC(C)C`
Return: 0 (no)

Enquiry: Now the same for `COC(=O)C1=C(c2ccccc2)C[C@@H]2CC[C@H]1N2C(=O)NCc1ccco1`
Return: 0 (no)

Enquiry: // query: NCC(O)c1ccc(O)cc1 (centres undefined)
Return: 0 (no)

Enquiry: Next: `CC(C)(C)c1ccc(CN2C(=O)CN=C(c3ccccc3)c3ccccc32)cc1`
Return: 1 (yes)

Enquiry: Also `CCC(=NCCCO)c1c(O)n(-c2ccc(OC)cc2)c(=O)[nH]c1=O` , if possible.
Return: 0 (no)

Enquiry: Would you mind doing COc1c(O)ccc2c1-c1c3c(cc4c1C(C2)N(C)CC4)OCO3 (centres undefined) as well?
Return: 0 (no)

Enquiry: How about this compound: `CCOC(=O)c1c(N)n(CCN2CCOCC2)c2nc3ccccc3nc12`
Return: 0 (no)

Enquiry: Lookup `CCCCCCN=C(CC)c1c(O)n(CCCC)c(=O)[nH]c1=O`
Return: 1 (yes)

Enquiry: Consider next the compound C[N+]1(C)CCOC(O)(c2ccc(-c3ccc(C4(O)C[N+](C)(C)CCO4)cc3)cc2)C1 (centres undefined) in the same way.
Return: 0 (no)

Enquiry: Please answer likewise for `CC(C)(C)[C@]1(O)C[C@@H]2OC(=O)C[C@@]23C(=O)O[C@@H]2OC(=O)[C@H](O)[C@]213`
Return: 0 (no)
